Provide the reported % Mortality at 48 Hrs. of each item.
System: Mite
DETAILS: Dose 1 ml/gm/lit.; 48 hrs
Numbers only, in %.

# count of solved cases: 5
{"COMPOUND": "CCCCC[C@H](O)CC(=O)CCc1ccc(O)c(OC)c1 [Gingerol]", "UNIT_DESCRIPTOR": "%", "% Mortality at 48 Hrs.": 35.00}
{"COMPOUND": "CCCCCCCCCCCCCCCC(=O)O [Palmitic acid]", "UNIT_DESCRIPTOR": "%", "% Mortality at 48 Hrs.": 42.50}
{"COMPOUND": "CCCCCCCCCC(C)=O [Embodiment 2-undecanone, 2-undecanone]", "UNIT_DESCRIPTOR": "%", "% Mortality at 48 Hrs.": 30.00}
{"COMPOUND": "C=CCc1ccc(OC)c(O)c1 [Chavibetol]", "UNIT_DESCRIPTOR": "%", "% Mortality at 48 Hrs.": 25.00}
{"COMPOUND": "CC12CCC(CC1)C(C)(C)O2 [1,8 cineole]", "UNIT_DESCRIPTOR": "%", "% Mortality at 48 Hrs.": 25.00}

Look at each compound and report its % Mortality at 48 Hrs..
1. CC1CCC(C(C)C)C(O)C1 (centres unmarked) [Menthol]
2. C=C1C2CCC(C2)C1(C)C (centres unmarked) [Camphene, camphene]
3. C=CCc1ccc(OC)cc1 [Methyl chavicol]
4. CC1=CCC2CC1C2(C)C (stereo not drawn) [Alpha-pinene]
5. CC1=CC(=O)C(C(C)C)=CC1=O [Thymoquinone]

[45.00, 40.00, 45.00, 40.00, 32.50]

====

Tested on: Mite
DETAILS: Dose 1 ml/gm/lit.; 48 hrs
VALUE_TYPE: % Corrected Mortality at 48 Hrs. (%)
One number for each entry, in %.

Record excerpt, results attached:
{"COMPOUND": "CC1CCC(C(C)C)C(O)C1 (stereo not shown)", "% Corrected Mortality at 48 Hrs. (%)": 40.54}
{"COMPOUND": "CCCCCCCCCC(C)=O", "% Corrected Mortality at 48 Hrs. (%)": 24.32}
{"COMPOUND": "C=CCc1ccc(OC)c(O)c1", "% Corrected Mortality at 48 Hrs. (%)": 18.92}

Look up % Corrected Mortality at 48 Hrs. for the entries below, preserving their order.
1. C/C=C\c1cc(OC)c(OC)cc1OC
2. C=CCc1ccc(O)c(OC)c1
3. O=C(/C=C/C=C/c1ccc2c(c1)OCO2)N1CCCCC1

1: 18.92; 2: 48.65; 3: 59.46

Record % Corrected Mortality at 48 Hrs. for all entries; do not skip any.
1. CCCCC[C@H](O)CC(=O)CCc1ccc(O)c(OC)c1
2. O=c1oc2c(O)c(O)cc3c(=O)oc4c(O)c(O)cc1c4c23
3. C=C(C)[C@H]1CC=C(C)CC1
4. CC12CCC(CC1=O)C2(C)C (stereo not shown)

29.73
45.95
45.95
64.86

====

Test system: chili seedlings
PROTOCOL_SUMMARY: Response of chili plants, greenhouse growth (Ex. 31)
Format: in vivo
DETAILS: chili seedlings; dose 1 ml/gm/lit; 10th day after application
VALUE_TYPE: CCI 10th Day
One number for each entry.

Example molecules with recorded CCI 10th Day:
{"MOLECULE": "O=c1oc2c(O)c(O)cc3c(=O)oc4c(O)c(O)cc1c4c23", "TEST_RESULT": 16.95}
{"MOLECULE": "Cc1ccc(C(C)C)cc1O", "TEST_RESULT": 15}
{"MOLECULE": "CC1=CC(=O)C(C(C)C)=CC1=O", "TEST_RESULT": 14}
{"MOLECULE": "CC12CCC(CC1=O)C2(C)C (stereo not shown)", "TEST_RESULT": 13.21}
{"MOLECULE": "CC1CCC(C(C)C)C(O)C1 (stereo not shown)", "TEST_RESULT": 13.87}
{"MOLECULE": "O=C(/C=C/C=C/c1ccc2c(c1)OCO2)N1CCCCC1", "TEST_RESULT": 14.2}
{"MOLECULE": "CCCCCCCCCCCCCCCC(=O)O", "TEST_RESULT": 15.95}
{"MOLECULE": "C/C=C\\c1cc(OC)c(OC)cc1OC", "TEST_RESULT": 12.49}
{"MOLECULE": "COc1cc(CNC(=O)CCCC/C=C/C(C)C)ccc1O", "TEST_RESULT": 13.52}

Switching to the query record.
Record lookup: for chili seedlings, what CCI 10th Day belongs to CC1=CCC2CC1C2(C)C (stereo not shown) ?
12.58

====

Provide the reported % Mortality at 72 Hrs. of each item.
Tested on: Helicoverpa armigera
DETAILS: Helicoverpa armigera on okra fruits; dose 1 ml/gm/lit.; 72 Hrs.
Answers are plain numbers, in %.

Worked set:
{"COMPOUND": "CC12CCC(CC1)C(C)(C)O2 [1,8 cineole]", "% Mortality at 72 Hrs. / %": 55.00}
{"COMPOUND": "C=C(C)[C@H]1CC=C(C)CC1 [D-limonene]", "% Mortality at 72 Hrs. / %": 32.50}
{"COMPOUND": "CCCCCCCCCC(C)=O [Embodiment 2-undecanone, 2-undecanone]", "% Mortality at 72 Hrs. / %": 55.00}

Lab note: each compound below needs its % Mortality at 72 Hrs. filled in.
1. Cc1ccc(C(C)C)cc1O [Carvacrol]
2. CCCCCCCCCCCCCCCC(=O)O [Palmitic acid]

1: 55.00; 2: 45.00

====

Tested on: Thrips
DETAILS: 48 h, 1 mL or g/L
Could you please report measured Total No. of dead insect at 48 Hrs. for the items listed next?
Give bare numbers.

{"MOLECULE": "C=CCc1ccc(O)c(OC)c1", "STUDY_SYSTEM": "Thrips", "Total No. of dead insect at 48 Hrs.": 2.50}

For every record below, what is its Total No. of dead insect at 48 Hrs.?
1. CC(C)=CCCC(C)=CC=O
2. C=C1C2CCC(C2)C1(C)C (stereo not shown)
3. Cc1ccc(C(C)C)cc1

[5.75, 5.25, 6.00]

====

Tested on: Mite
DETAILS: Dose 1 ml/gm/lit.; 10 insects/treatment, 4 replications; okra leaves
I'd appreciate it if you could supply Total No. of dead insect at 48 Hrs. values for the items below.
Numbers only.

{"COMPOUND": "CCCCCCCCCC(C)=O", "STUDY_SYSTEM": "Mite", "Total No. of dead insect at 48 Hrs.": 3.00}

Okay, here is my list. What is Total No. of dead insect at 48 Hrs. for each of these?
1. CC1=CCC2CC1C2(C)C (centres unmarked)
2. C=CCc1ccc(OC)cc1

1: 4.00; 2: 4.50

For each of the compounds below, state Total No. of dead insect at 48 Hrs..
1. O=c1oc2c(O)c(O)cc3c(=O)oc4c(O)c(O)cc1c4c23
2. CC1CCC(C(C)C)C(O)C1 (centres unmarked)

1: 5.00; 2: 4.50

====

Test system: chili seedlings
PROTOCOL_SUMMARY: Response of chili plants, greenhouse growth (Ex. 31)
Assay type: in vivo
DETAILS: chili seedlings; dose 1 ml/gm/lit; 10th day
VALUE_TYPE: Root Lenght (cm) 10th Day
Answer with the figure and its unit, nothing else.

{"COMPOUND": "CC1CCC(C(C)C)C(O)C1 (stereo not drawn)", "Root Lenght (cm) 10th Day": "3.02 cm"}
{"COMPOUND": "CCCCC[C@H](O)CC(=O)CCc1ccc(O)c(OC)c1", "Root Lenght (cm) 10th Day": "3.77 cm"}

Bench note: what Root Lenght (cm) 10th Day did "CCCCCCCCCC(C)=O" show?
4.44 cm

====

System: tomato seedlings
PROTOCOL_SUMMARY: Response of tomato plants, greenhouse growth (Ex. 30)
Assay type: in vivo
DETAILS: tomato seedlings; 5th day after application; dose 1 ml/gm/lit
VALUE_TYPE: Stem Girth 5th Day

{"COMPOUND": "C/C=C\\c1cc(OC)c(OC)cc1OC [β-Asarone]", "TEST_RESULT": "1.72 mm"}
{"COMPOUND": "CC1=CCC2CC1C2(C)C (stereo not drawn) [Alpha-pinene]", "TEST_RESULT": "2.01 mm"}

For each entry beneath this line, provide reported Stem Girth 5th Day.
1. CC1CCC(C(C)C)C(O)C1 (stereo not shown) [Menthol]
2. CC12CCC(CC1)C(C)(C)O2 [1,8 cineole]

1.48 mm
1.74 mm

====

System: Mealy Bug
DETAILS: mealy bug on cotton plants, green house; dose 1 ml/gm/lit. spray; 48 hrs after application
VALUE_TYPE: % Mortality at 48 Hrs. (%)
Numbers only, in %.

{"MOLECULE": "CCCCCCCCCC(C)=O [Embodiment 2-undecanone, 2-undecanone]", "STUDY_SYSTEM": "Mealy Bug", "VALUE_TYPE": "% Mortality at 48 Hrs.", "UNIT_DESCRIPTOR": "%", "TEST_RESULT": 57.50}

List the reported % Mortality at 48 Hrs. of each molecule below.
1. C=CCc1ccc(OC)cc1 [Methyl chavicol]
2. O=c1oc2c(O)c(O)cc3c(=O)oc4c(O)c(O)cc1c4c23 [Ellagic acid]
3. O=C(/C=C/C=C/c1ccc2c(c1)OCO2)N1CCCCC1 [Piperine]
4. CC1CCC(C(C)C)C(O)C1 (centres unmarked) [Menthol]

1. 60.00
2. 57.50
3. 57.50
4. 67.50
